# tested_system: Voltage-gated inwardly rectifying potassium channel KCNH2 (Homo sapiens) (UniProt Q12809)
# Sequence (Q12809 whole entry, looked up): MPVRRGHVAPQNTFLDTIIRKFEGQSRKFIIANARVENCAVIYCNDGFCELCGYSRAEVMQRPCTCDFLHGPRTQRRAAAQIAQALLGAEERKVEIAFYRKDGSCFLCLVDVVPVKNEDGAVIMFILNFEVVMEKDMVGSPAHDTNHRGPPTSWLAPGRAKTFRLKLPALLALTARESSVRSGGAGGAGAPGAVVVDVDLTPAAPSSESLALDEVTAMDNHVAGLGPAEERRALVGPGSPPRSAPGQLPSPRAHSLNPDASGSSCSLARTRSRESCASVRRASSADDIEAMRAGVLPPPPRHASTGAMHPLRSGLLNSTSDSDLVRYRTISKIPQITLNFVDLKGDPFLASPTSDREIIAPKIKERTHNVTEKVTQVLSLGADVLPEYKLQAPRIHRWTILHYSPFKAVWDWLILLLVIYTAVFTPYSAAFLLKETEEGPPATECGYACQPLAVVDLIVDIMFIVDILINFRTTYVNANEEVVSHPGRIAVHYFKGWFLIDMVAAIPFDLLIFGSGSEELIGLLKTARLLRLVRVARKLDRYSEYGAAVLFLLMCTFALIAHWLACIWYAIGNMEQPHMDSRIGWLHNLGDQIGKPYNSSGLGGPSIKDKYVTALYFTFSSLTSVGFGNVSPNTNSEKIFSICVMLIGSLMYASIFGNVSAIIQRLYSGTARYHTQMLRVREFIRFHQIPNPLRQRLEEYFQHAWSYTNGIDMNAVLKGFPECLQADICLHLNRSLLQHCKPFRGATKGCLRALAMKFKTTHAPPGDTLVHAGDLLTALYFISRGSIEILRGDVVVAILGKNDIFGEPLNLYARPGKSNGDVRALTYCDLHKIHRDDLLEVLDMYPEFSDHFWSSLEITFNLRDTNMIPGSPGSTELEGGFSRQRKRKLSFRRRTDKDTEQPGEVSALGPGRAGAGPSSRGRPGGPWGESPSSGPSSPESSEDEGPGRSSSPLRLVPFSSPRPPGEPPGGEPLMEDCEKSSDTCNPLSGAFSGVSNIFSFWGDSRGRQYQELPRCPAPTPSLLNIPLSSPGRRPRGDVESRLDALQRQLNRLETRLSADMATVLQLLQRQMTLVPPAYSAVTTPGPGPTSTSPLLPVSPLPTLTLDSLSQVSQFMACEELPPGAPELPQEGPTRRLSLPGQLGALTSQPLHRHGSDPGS
# test_protocol: KCNH2 potassium flux blockade – cell-based, FluxOR thallium flux, CRC set 3, selectivity assay for KCNK9 inhibitor project, SAR follow-up (AID 588741)
# applied_conditions: hERG-expressing cells, FluxOR thallium flux fluorescence
Let's look at some molecules and their measured IC50.

Here is how some molecules turned out for IC50.
molecule="COc1cccc(C(=O)CSc2nnc(-c3ccco3)n2C(C)C2CC3CCC2C3)c1 (configuration not stated)" experimental_value="17.2 µM"
molecule="COc1ccc(C(=O)CSc2nnc(-c3ccco3)n2C(C)C2CC3CCC2C3)cc1OC (configuration not stated)" experimental_value="13.6 µM"

Entry CC(C1CC2CCC1C2)n1c(SCC(=O)c2ccc3c(c2)OCO3)nnc1-c1ccco1 (configuration not stated) : reported IC50 = ?
3.45 µM

Then COc1ccc(C(=O)CSc2nnc(-c3ccco3)n2C(C)C2CC3CCC2C3)cc1 (configuration not stated) ?
20.1 µM

Then COc1ccc(CCSc2nnc(-c3ccco3)n2C(C)C2CC3CCC2C3)cc1OC (configuration not stated) ?
16.7 µM

Then CC(C1CC2CCC1C2)n1c(SCc2ccccc2)nnc1-c1ccco1 (configuration not stated) ?
9.77 µM

Then CC(C1CC2CCC1C2)n1c(SCC(=O)c2ccccc2)nnc1-c1ccco1 (configuration not stated) ?
23.9 µM

* * *

# tested_system: Voltage-gated inwardly rectifying potassium channel KCNH2 (Homo sapiens)
# test_protocol: KCNH2 potassium flux blockade – cell-based, FluxOR thallium flux, CRC set 3, selectivity assay for KCNK9 inhibitor project, SAR follow-up (AID 588741)
# applied_conditions: hERG-expressing cells, FluxOR thallium flux fluorescence; at 30 µM (top of the series)
Active and inactive are the calls of the source.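 How the source made its calls: active means peak inhibition of the hERG potassium channel flux above 30% at some tested dose, plus a fitted dose response curve; inactive means no inhibition at any dose, or no curve.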
reported_property: flux ratio, lower = inhibition

Here is how some molecules turned out for flux ratio, lower = inhibition.
molecule=COc1ccccc1C(=O)Nc1cc(NC(=O)c2ccccc2C(C)C)ccc1F tested_system="Voltage-gated inwardly rectifying potassium channel KCNH2 (Homo sapiens)" experimental_value=inactive
molecule="CC(C1CC2CCC1C2)n1c(-c2ccco2)n[nH]c1=O (stereo unspecified)" tested_system="Voltage-gated inwardly rectifying potassium channel KCNH2 (Homo sapiens)" experimental_value=inactive
molecule="COc1cccc(-c2nnc(S(C)(=O)=O)n2C(C)C2CC3CCC2C3)c1 (stereo unspecified)" tested_system="Voltage-gated inwardly rectifying potassium channel KCNH2 (Homo sapiens)" experimental_value=inactive
molecule=C[C@H](C1CCCCC1)n1c(-c2ccco2)n[nH]c1=S tested_system="Voltage-gated inwardly rectifying potassium channel KCNH2 (Homo sapiens)" experimental_value=inactive
molecule="CC(C1C2CCC1CC2)n1c(-c2ccco2)n[nH]c1=S (stereo unspecified)" tested_system="Voltage-gated inwardly rectifying potassium channel KCNH2 (Homo sapiens)" experimental_value=inactive
molecule="CC(C1CC2CCC1C2)n1c(-c2ccco2)nnc1C(F)(F)F (stereo unspecified)" tested_system="Voltage-gated inwardly rectifying potassium channel KCNH2 (Homo sapiens)" experimental_value=inactive
molecule="COc1cccc(Cc2n[nH]c(=S)n2C(C)C2CC3CCC2C3)c1 (stereo unspecified)" tested_system="Voltage-gated inwardly rectifying potassium channel KCNH2 (Homo sapiens)" experimental_value=inactive
molecule="CC(CCC1CCCC1)n1c(-c2ccco2)n[nH]c1=S (stereo unspecified)" tested_system="Voltage-gated inwardly rectifying potassium channel KCNH2 (Homo sapiens)" experimental_value=inactive
molecule="S=c1[nH]nc(-c2ccco2)n1C1CC2CCC1C2 (stereo unspecified)" tested_system="Voltage-gated inwardly rectifying potassium channel KCNH2 (Homo sapiens)" experimental_value=inactive
molecule="CC(C1CC2CCC1C2)n1c(-c2ccncc2)n[nH]c1=S (stereo unspecified)" tested_system="Voltage-gated inwardly rectifying potassium channel KCNH2 (Homo sapiens)" experimental_value=inactive

Please turn your attention to the following entry.
Entry CC(C1CC2CCC1C2)n1c(SC(F)F)nnc1-c1ccco1 (stereo unspecified) : reported flux ratio, lower = inhibition = ?
inactive

Reference source for all entries: PubChem BioAssay AID588741
